Tested on: Caenorhabditis elegans N2
Assay: food intake (mean delta OD600 / animal over 72 h) with 50 uM loxapine co-treatment (OD600 units per animal); higher = more food eaten (less suppression of loxapine-induced hyperphagia)
Conditions: first compound 33 µM, loxapine concentration 50 µM
Structures can show the parent of a compound that is named as a salt.
measured_endpoint: food intake

# molecule, measured_endpoint, assay_result
measured = [
    ("Fc1ccc([C@@H]2CCNC[C@H]2COc2ccc3c(c2)OCO3)cc1 [paroxetine (hydrochloride)] + CN1CCN(C2=Nc3ccccc3Oc3ccc(Cl)cc32)CC1 [loxapine]", "food intake", 0.0221),
    ("CN1C(C(=O)Nc2ccccn2)=C(O)c2ccccc2S1(=O)=O [piroxicam] + CN1CCN(C2=Nc3ccccc3Oc3ccc(Cl)cc32)CC1 [loxapine]", "food intake", 0.0225),
    ("CCOc1ccc(NC(C)=O)cc1 [phenacetin] + CN1CCN(C2=Nc3ccccc3Oc3ccc(Cl)cc32)CC1 [loxapine]", "food intake", 0.0226),
    ("CC(=O)O[C@H]1CC[C@H]2[C@@H]3CCc4cc(O)ccc4[C@H]3CC[C@]12C [b-estradiol 17-acetate] + CN1CCN(C2=Nc3ccccc3Oc3ccc(Cl)cc32)CC1 [loxapine]", "food intake", 0.0213),
    ("CC1CNc2c(cccc2S(=O)(=O)N[C@@H](CCCNC(=N)N)C(=O)N2CC[C@@H](C)C[C@@H]2C(=O)O)C1 (stereo partly specified) [argatroban (monohydrate)] + CN1CCN(C2=Nc3ccccc3Oc3ccc(Cl)cc32)CC1 [loxapine]", "food intake", 0.0229),
    ("c1ccc(C2CN3CCSC3=N2)cc1 (stereo unspecified) [tetramisole (hydrochloride)] + CN1CCN(C2=Nc3ccccc3Oc3ccc(Cl)cc32)CC1 [loxapine]", "food intake", 0.0209),
    ("CN(C)[C@@H]1C(O)=C(C(N)=O)C(=O)[C@@]2(O)C(O)=C3C(=O)c4c(O)cccc4[C@@](C)(O)[C@H]3C[C@@H]12 [Tetracycline (hydrochloride)] + CN1CCN(C2=Nc3ccccc3Oc3ccc(Cl)cc32)CC1 [loxapine]", "food intake", 0.0228),
    ("O=c1n(CCCN2CCN(c3cccc(Cl)c3)CC2)nc2ccccn12 [trazodone (hydrochloride)] + CN1CCN(C2=Nc3ccccc3Oc3ccc(Cl)cc32)CC1 [loxapine]", "food intake", 0.0285),
    ("COc1ccc(CNc2nc(N3CCC[C@H]3CO)ncc2C(=O)NCc2ncccn2)cc1Cl [avanafil] + CN1CCN(C2=Nc3ccccc3Oc3ccc(Cl)cc32)CC1 [loxapine]", "food intake", 0.023),
    ("O=c1[nH]c(=O)n([C@H]2C[C@H](O)[C@@H](CO)O2)cc1I [idoxuridine] + CN1CCN(C2=Nc3ccccc3Oc3ccc(Cl)cc32)CC1 [loxapine]", "food intake", 0.0176),
    ("CCOC(N)=O [urethane] + CN1CCN(C2=Nc3ccccc3Oc3ccc(Cl)cc32)CC1 [loxapine]", "food intake", 0.0215),
]
